So I've got a bunch of molecules here, and I need their TbTryS Activity ± 2σn-1 (%) values.
systemTested: TbTryS (Trypanosoma brucei trypanothione synthetase) (Trypanosoma brucei brucei)
assayDetails: biochemical

[ask] Fill in the blank: the reported TbTryS Activity ± 2σn-1 (%) of Fc1ccc(CNCCCCCCCCNCc2ccc(F)cc2)cc1 [EAP1-39] is ____.
[reply] 85.7 ± 2.0; 3%

[ask] O=[N+]([O-])c1ccc2c(c1)no[n+]2[O-] [Compound J16] ?
[reply] 92.6 ± 4.9; 3%

[ask] COc1ccc(CNCCCCCCCCCCCCNCc2ccc(OC)cc2)cc1 [EAP1-11] ?
[reply] 77.2 ± 4.5; 5 (1.30) %

[ask] COc1ccc2c(c1)no[n+]2[O-] [Compound J14] ?
[reply] 93.1 ± 5.6; 4%

[ask] O=C(C1=C(O)C(=O)N(c2nc3ccc(Cl)cc3s2)C1c1ccccc1)c1ccc2c(c1)OCCO2 (stereo not drawn) [ADMRC159] ?
[reply] 91.7 ± 6.5; 3%

[ask] Clc1ccc(CNCCCCCCCCCCNCc2ccc(Cl)cc2)cc1 [EAP1-53] ?
[reply] 63.9 ± 4.1; 4 (1.34) %

[ask] COc1cc(CNCCCCNCc2ccc(O)c(OC)c2)ccc1O [APC1-93] ?
[reply] 94.0 ± 9.1; 5%

[ask] CCCCn1c(=O)[nH]c(=O)c2c1nc(CSc1cccc(C(F)(F)F)c1)n2C [Compound C3, reference compound] ?
[reply] 92.7 ± 3.6; 3%

----------
systemTested: TbTryS (Trypanosoma brucei trypanothione synthetase) (Trypanosoma brucei brucei, UniProt Q8IEX1)
Sequence (Q8IEX1 1-627): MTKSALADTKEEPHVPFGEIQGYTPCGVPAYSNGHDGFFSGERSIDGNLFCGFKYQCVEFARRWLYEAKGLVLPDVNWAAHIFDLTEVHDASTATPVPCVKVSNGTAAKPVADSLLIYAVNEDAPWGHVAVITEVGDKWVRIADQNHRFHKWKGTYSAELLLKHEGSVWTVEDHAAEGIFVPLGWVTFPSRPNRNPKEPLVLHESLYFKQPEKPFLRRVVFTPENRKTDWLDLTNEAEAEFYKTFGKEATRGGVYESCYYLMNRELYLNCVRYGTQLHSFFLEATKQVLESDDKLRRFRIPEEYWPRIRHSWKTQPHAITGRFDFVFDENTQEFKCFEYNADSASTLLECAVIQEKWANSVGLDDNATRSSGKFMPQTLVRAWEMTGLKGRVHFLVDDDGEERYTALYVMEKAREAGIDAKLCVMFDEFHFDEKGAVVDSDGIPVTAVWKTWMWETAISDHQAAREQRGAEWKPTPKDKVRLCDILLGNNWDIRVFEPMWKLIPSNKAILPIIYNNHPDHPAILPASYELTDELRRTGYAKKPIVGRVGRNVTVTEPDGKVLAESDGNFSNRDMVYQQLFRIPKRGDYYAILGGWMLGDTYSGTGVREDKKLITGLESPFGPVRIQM
assayDetails: biochemical
measuredProperty: TbTryS Activity ± 2σn-1 (%)

[ask] Fill in the blank: the reported TbTryS Activity ± 2σn-1 (%) of `[O-][n+]1onc2cc(Cl)ccc21` is ____.
[reply] 92.7 ± 2.7; 3%

[ask] `c1ccc(COc2ccc(CNCCCCCCCCCCNCc3ccc(OCc4ccccc4)cc3)cc2)cc1` ?
[reply] 71.4 ± 6.1; 4%

[ask] `Cc1cc2no[n+]([O-])c2cc1C` ?
[reply] 88.8 ± 5.8; 4%

[ask] `Cc1ccc(CNCCCCCCCCNCc2ccc(C)cc2)cc1` ?
[reply] 78.4 ± 0.6; 3%

[ask] COc1ccc(C2C(C(=O)c3ccc(OC)c(OC)c3)=C(O)C(=O)N2c2nc3ccc(Cl)cc3s2)cc1 (stereo not drawn) ?
[reply] 88.0 ± 5.0; 4%

[ask] `[O-][n+]1onc2cc(C(F)(F)F)ccc21` ?
[reply] 98.4 ± 4.2; 3%

[ask] `Brc1ccc(CNCCCCCCCCNCc2ccc(Br)cc2)cc1` ?
[reply] 73.4 ± 1.7; 3%

[ask] COc1ccc(C2C(C(=O)c3ccc(OC)c(OC)c3)=C(O)C(=O)N2c2nc3ccc(OC)cc3s2)cc1 (stereo not drawn) ?
[reply] 82.0 ± 1.6; 3%

[ask] `CCCCN(CCCC)C(=O)c1cnc(N)o1` ?
[reply] 82.4 ± 4.7; 3%

----------
systemTested: UniProt A4I2Z3
Sequence (A4I2Z3 1-652): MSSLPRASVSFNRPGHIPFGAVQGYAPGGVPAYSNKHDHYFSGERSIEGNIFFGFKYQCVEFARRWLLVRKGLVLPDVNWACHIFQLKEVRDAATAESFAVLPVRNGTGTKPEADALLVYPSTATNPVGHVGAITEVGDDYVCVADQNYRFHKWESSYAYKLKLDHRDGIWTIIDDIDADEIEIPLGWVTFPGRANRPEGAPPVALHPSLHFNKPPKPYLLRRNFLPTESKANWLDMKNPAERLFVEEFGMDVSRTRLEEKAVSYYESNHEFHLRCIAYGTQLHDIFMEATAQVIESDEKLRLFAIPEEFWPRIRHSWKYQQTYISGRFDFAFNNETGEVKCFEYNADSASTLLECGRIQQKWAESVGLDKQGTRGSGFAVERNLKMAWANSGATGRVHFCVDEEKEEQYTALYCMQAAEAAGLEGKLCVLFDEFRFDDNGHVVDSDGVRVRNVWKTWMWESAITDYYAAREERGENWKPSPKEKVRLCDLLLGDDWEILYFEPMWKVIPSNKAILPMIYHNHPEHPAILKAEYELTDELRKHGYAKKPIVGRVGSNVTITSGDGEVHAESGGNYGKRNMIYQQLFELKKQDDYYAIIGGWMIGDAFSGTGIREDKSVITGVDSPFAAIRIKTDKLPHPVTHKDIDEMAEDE
assayDetails: biochemical
Format: biochemical
So I've got a bunch of compounds here, and I need their LiTryS Activity ± 2σn-1 (%) values.

[ask] Fill in the blank: the reported LiTryS Activity ± 2σn-1 (%) of `c1ccc(COc2ccc(CNCCCCCCCCCCNCc3ccc(OCc4ccccc4)cc3)cc2)cc1` is ____.
[reply] 69.8 ± 6.5; 3%

[ask] `[O-][n+]1onc2ccccc21` ?
[reply] 84.9 ± 5.5; 4%

[ask] `COc1ccc(CNCCCCCCCCCCCCNCc2ccc(OC)cc2)cc1` ?
[reply] 62.0 ± 7.8; 4%

[ask] c1ccc(COc2ccc(CNCCCNCc3ccc(OCc4ccccc4)cc3)cc2)cc1 [APC1-71B] ?
[reply] 80.8 ± 8.7; 3%

[ask] `O=[N+]([O-])c1ccc2c(c1)no[n+]2[O-]` ?
[reply] 80.1 ± 9.2; 4%

[ask] `COc1ccc2c(c1)no[n+]2[O-]` ?
[reply] 96.1 ± 7.3; 4%

[ask] Cc1ccc2nc(N3C(=O)C(O)=C(C(=O)c4ccc5c(c4)OCCO5)C3c3ccc(F)cc3)sc2c1 (stereo not shown) ?
[reply] 64.7 ± 3.7; 4%

[ask] `Fc1ccc(CNCCCCCCCCCCCCNCc2ccc(F)cc2)cc1` ?
[reply] 63.2 ± 5.0; 4%

[ask] `c1ccc(COc2ccc(CNCCCCCCCCNCc3ccc(OCc4ccccc4)cc3)cc2)cc1` ?
[reply] 72.2 ± 6.2; 4%

[ask] `[O-][n+]1onc2cc(Br)ccc21` ?
[reply] 76.0 ± 6.8; 3%

[ask] `c1ccc(CNCCCCCCCCCCNCc2ccccc2)cc1` ?
[reply] 86.9 ± 6.3; 3%

[ask] `Fc1ccc(CNCCCCCCCCNCc2ccc(F)cc2)cc1` ?
[reply] 69.6 ± 5.5; 4%

[ask] COc1cc(C2C(C(=O)c3ccc4c(c3)OCCO4)=C(O)C(=O)N2c2nc3ccc(C)cc3s2)ccc1O (stereo not shown) ?
[reply] 92.5 ± 6.6; 4%

[ask] `COc1cc2no[n+]([O-])c2cc1OC` ?
[reply] 72.7 ± 7.2; 4%

[ask] COc1ccc(C2C(C(=O)c3ccc(OC)c(OC)c3)=C(O)C(=O)N2c2nc3ccc(Cl)cc3s2)cc1 (stereo not shown) ?
[reply] 82.3 ± 7.7; 3%

[ask] `c1ccc(CNCCCCCCCCNCc2ccccc2)cc1` ?
[reply] 62.8 ± 3.9; 4%

[ask] `COc1ccc(CNCCCCCCCCCCNCc2ccc(OC)cc2)cc1` ?
[reply] 79.8 ± 2.3; 3%

[ask] COc1ccc2nc(N3C(=O)C(O)=C(C(=O)c4ccc5c(c4)OCCO5)C3c3ccc(OC)c(OC)c3)sc2c1 (stereo not shown) ?
[reply] 89.3 ± 7.4; 3%
